# test_summary: Solubility of compound in fasted state simulated intestinal fluid measured after 4 hrs
# Type: physicochemical
Consider the following molecules and their measured solubility at 4 h readings.
metric_name: solubility at 4 h (µg/mL)

> print(dat)
                                    molecule  meas.value
 1  CC1=CCC[C@H]1NC(=O)Nc1ccc(Cl)c(S(=O)(=O)C2CCN(CC(F)F)CC2)c1O          59
 2  CC1=CCC[C@H]1NC(=O)Nc1ccc(Cl)c(S(=O)(=O)C(C)(F)F)c1O        50.8
 3  CC1=CCC[C@H]1NC(=O)Nc1ccc(Cl)c(S(=O)(=O)C(C)(C)CN(C)C)c1O         395
 4  CC1=CCC[C@H]1NC(=O)Nc1ccc(Cl)c(S(=O)(=O)[C@@H]2CC[C@@H](O)C2)c1O        15.1
 5  CC1=CCC[C@H]1NC(=O)Nc1ccc(Cl)c(S(=O)(=O)C2(C)CCOC2)c1O (some centres not stated)        33.2
 6  CC1=CCC[C@H]1NC(=O)Nc1ccc(Cl)c(S(=O)(=O)C(C)(C)C2COC2)c1O           7
 7  CC1=CCC[C@H]1NC(=O)Nc1ccc(Cl)c(S(=O)(=O)C(F)(F)CN(C)C)c1O         128
 8  CC1=CCC[C@H]1NC(=O)Nc1ccc(Cl)c(S(=O)(=O)C(C)(C)CF)c1O           3
 9  CC1=CCC[C@H]1NC(=O)Nc1ccc(Cl)c(S(=O)(=O)C2(C)CCCOC2)c1O (some centres not stated)         4.1
10  CC1=CCC[C@H]1NC(=O)Nc1ccc(Cl)c(S(=O)(=O)C2(CCF)CCOCC2)c1O        26.7
11  CC1=CCC[C@H]1NC(=O)Nc1ccc(Cl)c(S(=O)(=O)[C@H]2C[C@H](N3CCCC3)C2)c1O         758
12  CC1=CCC[C@H]1NC(=O)Nc1ccc(Cl)c(S(=O)(=O)C2CC3(COC3)C2)c1O         127
